Biological target: full-length human PLD1 (Homo sapiens (Human), UniProt Q13393)
Sequence (Q13393 other isoform, or with tags, fused parts or gaps): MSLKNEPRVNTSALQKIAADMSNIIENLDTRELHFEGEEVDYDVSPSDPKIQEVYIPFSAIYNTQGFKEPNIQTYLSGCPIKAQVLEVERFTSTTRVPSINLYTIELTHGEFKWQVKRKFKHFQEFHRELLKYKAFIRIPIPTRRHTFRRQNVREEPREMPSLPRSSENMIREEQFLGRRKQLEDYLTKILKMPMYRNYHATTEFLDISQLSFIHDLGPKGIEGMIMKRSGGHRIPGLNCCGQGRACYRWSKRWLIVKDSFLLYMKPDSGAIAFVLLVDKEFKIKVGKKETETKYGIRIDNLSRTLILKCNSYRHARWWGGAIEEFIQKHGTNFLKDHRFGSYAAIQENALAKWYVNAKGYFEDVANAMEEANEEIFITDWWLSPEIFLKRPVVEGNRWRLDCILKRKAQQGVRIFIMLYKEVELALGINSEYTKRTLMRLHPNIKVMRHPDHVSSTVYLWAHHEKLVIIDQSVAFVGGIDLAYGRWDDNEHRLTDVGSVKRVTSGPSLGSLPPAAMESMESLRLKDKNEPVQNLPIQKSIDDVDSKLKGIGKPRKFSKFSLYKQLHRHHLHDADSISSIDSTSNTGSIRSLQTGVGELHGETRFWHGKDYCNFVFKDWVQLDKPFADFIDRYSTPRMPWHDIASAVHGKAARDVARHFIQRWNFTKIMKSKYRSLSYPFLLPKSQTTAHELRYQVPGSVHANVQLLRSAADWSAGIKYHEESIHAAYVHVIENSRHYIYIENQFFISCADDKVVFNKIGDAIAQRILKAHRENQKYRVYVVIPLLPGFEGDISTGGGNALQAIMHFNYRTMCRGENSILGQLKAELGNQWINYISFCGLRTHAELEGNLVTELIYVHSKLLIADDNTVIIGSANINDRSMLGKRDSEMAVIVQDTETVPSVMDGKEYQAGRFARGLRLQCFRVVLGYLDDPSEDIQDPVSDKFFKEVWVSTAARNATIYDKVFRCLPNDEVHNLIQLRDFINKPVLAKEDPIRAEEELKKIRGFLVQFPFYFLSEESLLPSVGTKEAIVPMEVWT
Assay: Evaluation of human PLD1 enzyme inhibitory activity (Amplex Red / choline oxidase fluorescence)
Format: biochemical
Settings: full-length human PLD1 enzyme; read-out: PLD1 IC50
pIC50 values, listed per item
Note: pIC50 values are expressed as the negative base-10 logarithm of concentration in M.

# molSmiles, pIC50
measured = [
    ("Cc1cccnc1C1=NNC(=O)O[C@]12CC[C@@H](C[C@H](C)NC(=O)c1cc(Cl)no1)CC2", 7.70),
    ("CNC(=O)C(=O)N[C@H](CN1CCC2(CC1)OC(=O)NN=C2c1cc(C#N)ccc1Br)C(F)(F)F", 7.00),
    ("C[C@@H](C[C@H]1CC[C@]2(CC1)OC(=O)NN=C2c1cnc(N2CCOCC2)cc1Cl)NC(=O)N1CCn2nccc2C1", 7.60),
    ("CNC(=O)C(=O)N[C@@H](C)C[C@H]1CC[C@]2(CC1)OC(=O)NN=C2c1cnc(OCC(F)(F)F)cc1C", 7.72),
    ("Cc1cc(C(=O)N[C@@H](C)C[C@H]2CC[C@]3(CC2)OC(=O)NN=C3c2ccc(C#N)cc2Cl)[nH]n1", 7.54),
    ("CNC(=O)C(=O)N[C@@H](C)C[C@H]1CC[C@]2(CC1)OC(=O)NN=C2c1ccc(C#N)cc1Br", 7.80),
    ("Cc1cc(C(=O)N[C@@H](C)C[C@H]2CC[C@]3(CC2)OC(=O)NN=C3c2ccc(C#N)cc2Br)[nH]n1", 8.00),
    ("CNC(=O)C(=O)N[C@@H](C)C[C@H]1CC[C@]2(CC1)OC(=O)NN=C2c1cnc(C(C)=O)cc1C", 7.26),
    ("COc1cc(C)c(C2=NNC(=O)O[C@]23CC[C@@H](C[C@H](C)NC(=O)CC#N)CC3)cn1", 5.56),
    ("C[C@@H](C[C@H]1CC[C@]2(CC1)OC(=O)NN=C2c1cccc(OC(F)F)c1Br)NC(=O)c1cnn(C)c1", 7.82),
]

Continue with the next molecule.
I would be grateful if you could share the reported pIC50 for CNC(=O)C(=O)N[C@@H](C)C[C@H]1CC[C@]2(CC1)OC(=O)NN=C2c1ccc(S(=O)(=O)C(C)C)cc1Br .
7.80
